Examples of compounds with documented log2 ratio of Biotin-Ahx-Ub-VS probe labelling follow.
- testTarget: OTUD5 (UniProt Q96G74)
- Sequence (Q96G74 whole entry, the tested form may be a part): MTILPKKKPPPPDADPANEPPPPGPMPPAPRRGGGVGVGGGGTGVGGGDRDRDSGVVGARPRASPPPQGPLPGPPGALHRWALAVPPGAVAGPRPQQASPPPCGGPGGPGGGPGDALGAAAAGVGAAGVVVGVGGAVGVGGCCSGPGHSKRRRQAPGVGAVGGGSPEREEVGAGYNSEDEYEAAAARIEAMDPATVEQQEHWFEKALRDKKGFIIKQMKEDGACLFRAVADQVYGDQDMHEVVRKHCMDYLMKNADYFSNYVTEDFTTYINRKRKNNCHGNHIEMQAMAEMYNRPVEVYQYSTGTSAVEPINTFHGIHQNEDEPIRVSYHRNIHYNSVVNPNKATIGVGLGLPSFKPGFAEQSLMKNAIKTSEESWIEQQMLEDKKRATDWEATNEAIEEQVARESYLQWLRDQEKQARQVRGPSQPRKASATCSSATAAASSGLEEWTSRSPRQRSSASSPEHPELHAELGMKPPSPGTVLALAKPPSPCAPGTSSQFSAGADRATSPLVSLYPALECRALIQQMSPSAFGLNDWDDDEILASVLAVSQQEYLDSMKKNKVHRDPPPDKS
- assayNotes: log2 ratio of Biotin-Ahx-Ub-VS probe labelling (fragment/DMSO); higher = less target engagement (more negative = stronger competition), active = hit call of the paper (q ≤ 0.05, log2 ratio ≤ -1)
- conditionDescription: compound concentration: 200 uM; treatment time: 3 h

> print(dat)
                                   compound        measurement
1  O=C(CCl)N1CCOCC1C1CC1 (centres undefined)  -0.313 (inactive)
2                CNC(=O)Cn1cc(NC(=O)CCl)cn1  -0.468 (inactive)
3         Cl.O=C(CCl)NCc1ccnc(Oc2ccccc2F)c1  -0.524 (inactive)
4             Cl.Cn1c(CNC(=O)CCl)nc2cccnc21  -0.323 (inactive)

IN: Can you share its log2 ratio of Biotin-Ahx-Ub-VS probe labelling? I mean this compound: CCC(NC(=O)CCl)c1ccc(Cl)cc1 (centres undefined)
OUT: -0.123 (inactive)

IN: Can you share its log2 ratio of Biotin-Ahx-Ub-VS probe labelling? I mean this compound: `C[C@H]1CN(C(=O)CCl)CCN1C(=O)c1cnn(C)c1.Cl`
OUT: -0.326 (inactive)

IN: Can you share its log2 ratio of Biotin-Ahx-Ub-VS probe labelling? I mean this compound: `O=C(CCl)NC1(c2ccc3c(c2)OCCO3)CCCC1`
OUT: -0.293 (inactive)

IN: Can you share its log2 ratio of Biotin-Ahx-Ub-VS probe labelling? I mean this compound: CC(NC(=O)CCl)c1ccc2[nH]ncc2c1 (centres undefined)
OUT: -0.509 (inactive)

IN: Can you share its log2 ratio of Biotin-Ahx-Ub-VS probe labelling? I mean this compound: `Cl.O=C(CCl)N1CCn2cncc2C1`
OUT: -0.214 (inactive)

IN: Can you share its log2 ratio of Biotin-Ahx-Ub-VS probe labelling? I mean this compound: `O=C(CCl)NCc1ccc(N2CCOCC2)nc1`
OUT: -0.385 (inactive)

IN: Can you share its log2 ratio of Biotin-Ahx-Ub-VS probe labelling? I mean this compound: `CN(C(=O)CCl)c1nc2ccccc2s1`
OUT: -1.02 (active)

IN: Can you share its log2 ratio of Biotin-Ahx-Ub-VS probe labelling? I mean this compound: `COc1ccc(CN(C)C(=O)CCl)cc1`
OUT: -0.536 (inactive)

IN: Can you share its log2 ratio of Biotin-Ahx-Ub-VS probe labelling? I mean this compound: `Cc1nc(-c2cccc(NC(=O)CCl)c2)cs1`
OUT: -0.539 (inactive)

IN: Can you share its log2 ratio of Biotin-Ahx-Ub-VS probe labelling? I mean this compound: O=C(CCl)N1CCC(O)(Cc2ccc(F)cc2)C1 (centres undefined)
OUT: -0.233 (inactive)

IN: Can you share its log2 ratio of Biotin-Ahx-Ub-VS probe labelling? I mean this compound: NC(=O)C(Cc1ccccc1)NC(=O)CCl (centres undefined)
OUT: -0.216 (inactive)

IN: Can you share its log2 ratio of Biotin-Ahx-Ub-VS probe labelling? I mean this compound: `Cc1n[nH]c2c1CN(C(=O)CCl)CC2`
OUT: -1.05 (active)

IN: Can you share its log2 ratio of Biotin-Ahx-Ub-VS probe labelling? I mean this compound: `O=C(CCl)N(Cc1ccsc1)C1CC1`
OUT: -0.657 (inactive)
